Tested on: Nucleic Acid
Assay: Photobinding to Poly(dA-dT)-Poly(dA-dT)-DNA after UV-A irradiation
Assay type: nucleic-acid assay
measure: ΔTm (°C)
Number only, in °C; omit the unit.

Task item: Form field: reported ΔTm of `Cc1coc2cc3oc(=O)ccc3cc12`
Reply: 9

Task item: Try this compound too: COc1c2ccoc2cc2oc(=O)ccc12 [BERGAPTEN]
Reply: 13

Task item: Can you handle `CCOc1c2ccoc2c(OCC)c2oc(=O)ccc12` next?
Reply: 0.5

Task item: Can you handle COc1c2occc2cc2ccc(=O)oc12 [METHOXSALEN] next?
Reply: 10

Task item: Repeat with `CCOCc1c2ccoc2c(OC)c2oc(=O)ccc12`
Reply: 1.5

Task item: Another compound to check: COc1c2ccoc2c(OC)c2oc(=O)ccc12 [ISOPIMPINELLIN]
Reply: 1

Task item: Input CC1COc2cc3oc(=O)ccc3cc21 (configuration not stated)
Reply: 0.5

Task item: Repeat for the following compound: `COCc1c2occc2c(OC)c2ccc(=O)oc12`
Reply: 1

Task item: `CC[N+](CC)(CC)Cc1c(C)oc2c(C)c3oc(=O)cc(C)c3cc12.[Cl-]` , same question.
Reply: 16

* * *

Biological target: Voltage-gated potassium channel KCNC1 (Homo sapiens)
Sequence (P48547 whole entry): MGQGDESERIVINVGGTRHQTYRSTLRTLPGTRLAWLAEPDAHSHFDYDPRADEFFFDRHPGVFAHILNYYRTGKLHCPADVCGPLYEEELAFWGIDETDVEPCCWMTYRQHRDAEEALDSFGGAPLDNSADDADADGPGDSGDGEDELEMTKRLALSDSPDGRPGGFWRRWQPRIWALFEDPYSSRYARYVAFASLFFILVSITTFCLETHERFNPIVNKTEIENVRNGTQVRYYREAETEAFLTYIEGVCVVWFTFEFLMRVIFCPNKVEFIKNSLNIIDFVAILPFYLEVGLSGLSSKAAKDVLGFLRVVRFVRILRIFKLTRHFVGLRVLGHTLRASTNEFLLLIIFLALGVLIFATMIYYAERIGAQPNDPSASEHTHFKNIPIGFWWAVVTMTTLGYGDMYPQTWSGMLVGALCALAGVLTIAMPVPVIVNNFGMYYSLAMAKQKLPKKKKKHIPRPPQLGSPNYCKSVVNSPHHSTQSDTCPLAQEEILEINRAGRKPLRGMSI
Assay: Blockade of peak K+ currents against Kv3.1 gene
measure: Kd (µM)
Write the value in µM as a bare number.

Task item: Recorded Kd for `CCOc1c2ccoc2c(OCC)c2oc(=O)ccc12` , please?
Reply: 178

Task item: `COCc1cc(=O)oc2cc3occ(C)c3cc12` , same question.
Reply: 213

Task item: Quick one: `COc1c2ccoc2cc2oc(=O)ccc12`
Reply: 111

* * *

Assay: compound was tested for production of singlet oxygen, measured as decrease in absorbance of N,N-dimethyl-p-nitrosoaniline (RNO) at 440 nm after 5 hr of UV-A irradiation
Assay type: ADME
Settings: 10 µM
Rule for this label: label 1 means O2 production is less than 50%; label 0 means O2 production is at least 50%.

Task item: Dear reviewer, please state whether `COc1c2ccoc2c(OC)c2oc(=O)ccc12` has O2 production strictly beneath 50%.
Reply: label 1

Task item: Check `COCc1c2occc2c(OC)c2ccc(=O)oc12` too.
Reply: label 1

Task item: Now the compound `CCOCc1c2ccoc2c(OC)c2oc(=O)ccc12`
Reply: label 1

Task item: Similarly, `CC[N+](CC)(CC)Cc1c(C)oc2c(C)c3oc(=O)cc(C)c3cc12.[Cl-]` ?
Reply: label 0

* * *

Target: Potassium voltage-gated channel subfamily A member 1 (Homo sapiens)
Sequence (Q09470 whole entry): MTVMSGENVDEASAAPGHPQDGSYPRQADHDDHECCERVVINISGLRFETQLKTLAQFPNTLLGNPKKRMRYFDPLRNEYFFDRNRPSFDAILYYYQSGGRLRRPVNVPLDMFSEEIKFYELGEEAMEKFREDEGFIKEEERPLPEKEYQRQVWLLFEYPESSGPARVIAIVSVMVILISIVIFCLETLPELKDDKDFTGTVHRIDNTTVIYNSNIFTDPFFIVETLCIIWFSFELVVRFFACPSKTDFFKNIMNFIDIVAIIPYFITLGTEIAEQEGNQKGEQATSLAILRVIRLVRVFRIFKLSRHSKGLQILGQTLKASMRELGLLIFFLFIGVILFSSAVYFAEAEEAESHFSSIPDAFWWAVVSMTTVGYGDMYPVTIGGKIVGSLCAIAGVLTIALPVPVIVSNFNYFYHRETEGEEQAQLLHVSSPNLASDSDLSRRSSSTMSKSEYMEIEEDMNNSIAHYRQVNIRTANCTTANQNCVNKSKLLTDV
Assay: Selectivity of K+ current blockade given by Bk/BNa in Xenopus laevis
Format: functional
Selectivity under 10 gets True, anything at or over 10 gets False.

Task item: I'd appreciate it if you could check whether `CCOc1c2ccoc2c(OCC)c2oc(=O)ccc12` has Selectivity smaller than 10.
Reply: False

Task item: And `Cc1coc2cc3oc(=O)cc(C)c3cc12` ?
Reply: True

Task item: Now the molecule `CCOc1cc(OCC)c2ccc(=O)oc2c1`
Reply: True

Task item: Try COc1c2ccoc2cc2oc(=O)ccc12 [BERGAPTEN] next.
Reply: False

Task item: What do we get for `COCc1cc(=O)oc2cc3occ(-c4ccccc4)c3cc12` ?
Reply: True

Task item: Also `COCc1c2occc2c(OC)c2ccc(=O)oc12` , if possible.
Reply: False

Task item: Same question, `COc1c2occc2c(COC(C)C)c2ccc(=O)oc12` this time
Reply: True

Task item: What about this molecule? `COCc1c(C)oc2c(C)c3oc(=O)cc(C)c3cc12`
Reply: False

Task item: Also `C=CCOCc1c2ccoc2c(OC)c2oc(=O)ccc12` , if possible.
Reply: True

Task item: One more molecule: `COc1c2c(cc3ccc(=O)oc13)CCO2`
Reply: True

Task item: Follow-up entry: `CC[N+](CC)(CC)Cc1c2ccoc2c(OC)c2oc(=O)ccc12`
Reply: True

Task item: Also need COc1c2occc2cc2ccc(=O)oc12 [METHOXSALEN] , thanks.
Reply: True

Task item: Entry to check: `Cc1coc2cc3oc(=O)ccc3cc12`
Reply: False
